system: THP-1; assay: Antiinflammatory activity in human THP1 cells assessed as inhibition of IL-1beta secretion at 1 uM treated 1 hr before LPS challenge measured after 24 hrs by ELISA; type: functional, cell-based
Calls of active or inactive are those of the source. The rule behind the calls is not given here.
Labels: active, inactive

1) CC(C)=CCc1c(-c2ccc(O)cc2O)oc2c(CC=C(C)C)c(O)cc(O)c2c1=O = active
2) CC(C)=CCC/C(C)=C/Cc1cc(C2CC(=O)c3c(O)cc(O)cc3O2)c(O)cc1O (stereo not drawn) = active
3) C[C@@]12C=C(c3c(O)cc(-c4cc5ccc(O)cc5o4)cc3O)C[C@@H](C1)c1ccc(O)cc1O2 = inactive
